B1: KRT13 (parent)
chain: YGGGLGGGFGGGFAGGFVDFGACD

# Variants of: B1
# assay-overview: protein stability index of a GFP-peptide fusion (GPS, HEK-293T) (PSI 1-6); higher = more stable;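 further: lentivirally expressed fusions sorted by FACS into six bins by GFP to DsRed ratio, PSI derived from sequencing read proportions per bin multiplied by bin number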
# experimental-conditions: c terminus: a fixed tail appended
observation-type: protein stability index
Give bare numbers.

| seq-string | result |
| --- | --- |
| YGGGLGGPFGGGFAGGFVDFGACD [G8P] | 1.75 |
| YGGGLGGGFGGTFAGGFVDFGACD [G12T] | 2.68 |
| YGGGLGGGSGGGFAGGFVDFGACD [F9S] | 1.85 |
| YGGGLGGGFGGGFAGGFVDFGNCD [A22N] | 1.95 |
| YGGGLGGGFGGGQAGGFVDFGACD [F13Q] | 2.8 |
| YGGGLGGGFGGGFAGGFMDFGACD [V18M] | 1.65 |

Turning now to a further variant:
Identify the reported protein stability index for the following entry. YGSGLGGGFGGGFAGGFVDFGACD [G3S]
1.84
